Molecular target: preQ1 riboswitch
Test: Long constant-force experiments at 9.6 pN on preQ1 riboswitch
Format: binding, Bsu
Settings: calculated by Koff/Kon
measure.name: Kd (nM)

NCc1c[nH]c2nc(N)[nH]c(=O)c12 = 73

---

Biological target: WT preQ1 riboswitch
Experiment: Ramp analysis, WT preQ1 riboswitch
Conditions: fit of high-force fraction
Experimental: The WT preQ1 riboswitch was used as a reference (FIG. 4B). […] The peak around the reference force decreased while there was an increase in the proportion of cycles that have a higher unfolding force. […] The fraction of cycles that have an unfolding force greater than 95% confidence interval of each bead was calculated in control conditions (FIG. 4B). […] This is similar to the KD calculated in Example 2 from the constant force experiment at 9.6 pN.
pKd: −log10 of the molar value.
measure.name: pKd

NCc1c[nH]c2nc(N)[nH]c(=O)c12 = 7.06

---

Molecular target: preQ1 riboswitch U7C + C15U mutant
Assay: Ramp analysis, U7C + C15U double mutant preQ1 riboswitch
Details: fit of high-force fraction
Source text: The preQ1 riboswitch has several point substitutions that modify affinity to the preQ1 ligand (FIG. 4A). Having established a reference point, the four different mutants were used to study the effect on preQ1 binding (FIG. 4C-4G). […] The difference could be due to the Mg^2+ used. Nonetheless, the platform was able to distinguish a 3-fold differences in KD, which is less apparent in platforms like SPR or fluorescent titration.
pKd: −log10 of the molar value.
measure.name: pKd

NCc1c[nH]c2nc(N)[nH]c(=O)c12 = 7.75

---

Molecular target: preQ1 riboswitch A10G mutant
Experiment: Ramp analysis, A10G mutant preQ1 riboswitch
Conditions: A10G; fit of maximum unfolding force density for each bead
pKd: −log10 of the molar value.
measure.name: pKd

NCc1c[nH]c2nc(N)[nH]c(=O)c12 = 4.46

---

Biological target: preQ1 riboswitch C15U mutant
Test: Ramp analysis, C15U mutant preQ1 riboswitch
Details: fit of high-force fraction
measure.name: Kd (nM)

NCc1c[nH]c2nc(N)[nH]c(=O)c12 = 5.35

---

Molecular target: HIV-1 TAR
Assay: Ramp experiments (unfolding/refolding force) on HIV-TAR RNA
Format: binding
Conditions: fit of normalized force at maximum unfolding distribution for each bead; read-out: KD
measure.name: Kd

N=C(N)NCCC[C@H](N)C(N)=O [argininamide] = 5.43 mM

---

Molecular target: HIV-1 TAR
Assay: Ramp experiments (unfolding/refolding force) on HIV-TAR RNA
Format: binding
Settings: fit of changes in unfolding force, ramp experiments; read-out: calculated KD
pKd: −log10 of the molar value.
measure.name: pKd

Cc1ccc2c(N)c(C(=O)Nc3cccc(C(F)(F)F)c3)sc2n1 = 5.52

---

Target: wild type (WT) Bsu preQ1 riboswitch
Experiment: Step constant-force experiments on WT preQ1 riboswitch
Conditions: fit of equilibrium force at each concentration
pKd: −log10 of the molar value.
measure.name: pKd

NCc1c[nH]c2nc(N)[nH]c(=O)c12 [preQ1] = 6.79
